- assay info: clinical
- Type: in vivo, human
- settings: human, in vivo, iv, 50 mg/m2, successful cases group, at the maintenance dose (50 mg/m^2); median ± standard deviation; SD; read-out: AUC24
quantity: AUC(0-t) (µg·h/mL)
# value in µg·h/mL; strip the unit string

Returns the measured AUC(0-t) for the input compound. Input: `CC[C@H](C)C[C@H](C)CCCCCCCCC(=O)N[C@H]1C[C@@H](O)[C@@H](NCCN)NC(=O)[C@@H]2[C@@H](O)CCN2C(=O)[C@H]([C@H](O)CCN)NC(=O)[C@H]([C@H](O)[C@@H](O)c2ccc(O)cc2)NC(=O)[C@@H]2C[C@@H](O)CN2C(=O)[C@H]([C@@H](C)O)NC1=O`
300
